// data source = the supplement of paper PMC10065799

system: Fer (mouse); test: phosphorylation enrichment, bacterial display (enrichment ratio); higher = better substrate or ligand; peptides without Tyr show the background;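 also: 11-residue human phosphosite peptides and single-mutation variants displayed on the E. coli surface, counted by deep sequencing, each peptide's frequency after selection divided by its frequency in the unselected input library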;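 also: frequency after pTyr selection over input frequency; kinase dosed for 20-30% of maximal phosphorylation in three min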
Would you please tag the item true (1) when its phosphorylation enrichment is 0.5 or above, and false (0) when it is below?

Ask: Quick check, phosphorylation enrichment >= 0.5? EKLQKYFRQNP [EHHADH_Y682_YF]
Reply: false (0)

Ask: Quick check, phosphorylation enrichment >= 0.5? TGNPAYRSFSN [IL4R_Y497_A492T]
Reply: false (0)

Ask: Quick check, phosphorylation enrichment >= 0.5? RASDFYSQQMA [GBP6_Y334_A331S_YF]
Reply: false (0)

Ask: Quick check, phosphorylation enrichment >= 0.5? SIIKDSFHRGA [GATM_Y203_Y203S]
Reply: false (0)

Ask: Quick check, phosphorylation enrichment >= 0.5? VEDQYYCVDCY [FHL1_Y208]
Reply: true (1)

Ask: Quick check, phosphorylation enrichment >= 0.5? VKMLLYTEVTR [GDI1_Y93]
Reply: true (1)

Ask: Quick check, phosphorylation enrichment >= 0.5? VEKGSYSALRA [ABCC2_Y845_L849R]
Reply: false (0)

Ask: Quick check, phosphorylation enrichment >= 0.5? KVDKEYEVRVR [GHR_Y226]
Reply: false (0)

Ask: Quick check, phosphorylation enrichment >= 0.5? EFLHKYKGFKI [SYNE1_Y6953_Q6951H_YF]
Reply: false (0)

Ask: Quick check, phosphorylation enrichment >= 0.5? MSNFACVKREV [SCN1A_Y1694_Y1694C]
Reply: false (0)

Ask: Quick check, phosphorylation enrichment >= 0.5? PINEPYGDDLD [JUP_Y693_M697L]
Reply: true (1)

Ask: Quick check, phosphorylation enrichment >= 0.5? ATVLNYLPKCI [A2M_Y817]
Reply: false (0)

* * *

target: EPHB2 (UniProt P29323); assay: phosphorylation enrichment, bacterial display (enrichment ratio); higher = better substrate or ligand; peptides without Tyr show the background
Sequence (P29323 whole entry, looked up): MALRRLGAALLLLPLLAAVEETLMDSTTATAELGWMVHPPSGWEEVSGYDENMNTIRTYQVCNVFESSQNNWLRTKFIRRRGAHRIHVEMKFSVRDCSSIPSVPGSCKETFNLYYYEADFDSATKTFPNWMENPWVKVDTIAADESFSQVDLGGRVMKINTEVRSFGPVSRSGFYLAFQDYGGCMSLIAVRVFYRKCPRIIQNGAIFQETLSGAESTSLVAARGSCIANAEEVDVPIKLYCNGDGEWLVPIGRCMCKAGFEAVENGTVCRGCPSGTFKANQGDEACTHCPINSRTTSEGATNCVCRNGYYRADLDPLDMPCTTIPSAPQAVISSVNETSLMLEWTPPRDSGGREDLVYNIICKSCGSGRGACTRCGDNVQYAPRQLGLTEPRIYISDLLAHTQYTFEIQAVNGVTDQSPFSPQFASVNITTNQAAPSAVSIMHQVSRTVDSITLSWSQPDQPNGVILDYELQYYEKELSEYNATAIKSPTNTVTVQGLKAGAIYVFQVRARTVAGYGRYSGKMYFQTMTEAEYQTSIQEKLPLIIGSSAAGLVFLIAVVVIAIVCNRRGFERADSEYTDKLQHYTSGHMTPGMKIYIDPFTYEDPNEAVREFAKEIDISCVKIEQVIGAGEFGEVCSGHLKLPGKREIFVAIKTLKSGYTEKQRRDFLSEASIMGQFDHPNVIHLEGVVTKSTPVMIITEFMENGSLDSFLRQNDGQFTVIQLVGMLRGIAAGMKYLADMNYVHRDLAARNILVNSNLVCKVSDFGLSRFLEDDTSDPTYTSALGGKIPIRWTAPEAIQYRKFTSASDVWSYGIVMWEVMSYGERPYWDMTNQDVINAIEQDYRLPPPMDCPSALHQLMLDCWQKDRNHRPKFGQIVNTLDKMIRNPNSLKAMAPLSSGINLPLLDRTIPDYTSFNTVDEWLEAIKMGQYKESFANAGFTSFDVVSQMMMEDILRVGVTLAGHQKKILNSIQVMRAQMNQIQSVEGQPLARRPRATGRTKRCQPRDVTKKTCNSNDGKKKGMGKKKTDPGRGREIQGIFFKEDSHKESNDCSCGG
Would you please tag the item class 1 when its phosphorylation enrichment is 0.7 or above, and class 0 when it is below?

Ask: Quick check, phosphorylation enrichment >= 0.7? FADIAYNFRQG [PAH_Y166_H170Q_YF]
Reply: class 0

Ask: Quick check, phosphorylation enrichment >= 0.7? REESTYLPLTS [ICAM3_Y527]
Reply: class 1

Ask: Quick check, phosphorylation enrichment >= 0.7? LREKVYASLEA [RXRA_Y397]
Reply: class 1

Ask: Quick check, phosphorylation enrichment >= 0.7? PRARTYCFKQE [KLHDC9_Y175_S171R_YF]
Reply: class 0

Ask: Quick check, phosphorylation enrichment >= 0.7? NFCPGYNNFFN [USH2A_Y467_R464C_YF]
Reply: class 0

Ask: Quick check, phosphorylation enrichment >= 0.7? NFATLHLKIFH [PDE6B_Y219_Y219H_YF]
Reply: class 1

Ask: Quick check, phosphorylation enrichment >= 0.7? ASKEPYYVRCI [MYO1D_Y585]
Reply: class 1

* * *

system: AncSZ; experiment: phosphorylation enrichment, bacterial display (enrichment ratio); higher = better substrate or ligand; peptides without Tyr show the background
Please go through the items and note down their phosphorylation enrichment.
Number only, no unit.

// phosphorylation enrichment lookup, sequence = VNKIFHPDFIV [LIG3_Y768_Y768H_YF] , result: 0.793

// phosphorylation enrichment lookup, sequence = NQNIGYKLGHR [KCNN3_Y268] , result: 0.402

// phosphorylation enrichment lookup, sequence = CTLLPYYSAPV [DGKE_Y269_R273P] , result: 2.02

// phosphorylation enrichment lookup, sequence = RETLTYAQAQR [BRD1_Y33] , result: 0.702

// phosphorylation enrichment lookup, sequence = KNNSIYVLANI [VNN1_Y134_V136L] , result: 1.17

// phosphorylation enrichment lookup, sequence = TPIYPYLLPKS [PLD2_Y580_T577I] , result: 0.837

// phosphorylation enrichment lookup, sequence = RLYARYFQGDL [PDK3_Y337] , result: 1.24

// phosphorylation enrichment lookup, sequence = KGSLPYNLILD [PKD1L2_Y406] , result: 0.695

// phosphorylation enrichment lookup, sequence = YSDPSYVKQME [CDC5L_Y464] , result: 1.1

// phosphorylation enrichment lookup, sequence = SVVVPYGPPEV [TP53_Y220_E221G] , result: 0.75

// phosphorylation enrichment lookup, sequence = PDKRIYQFTAA [SKAP2_Y197] , result: 0.73

// phosphorylation enrichment lookup, sequence = GRERPYGGGGG [FUS_Y526_R521G] , result: 0.498

// phosphorylation enrichment lookup, sequence = QNAGDYFDLFG [PTPN11_Y62_T59A_YF] , result: 6.62

// phosphorylation enrichment lookup, sequence = VKYGAYINDFK [GLB1_Y488_N484K] , result: 0.691

// phosphorylation enrichment lookup, sequence = LPPGEYVVVPS [CAPN1_Y494] , result: 1.7

// phosphorylation enrichment lookup, sequence = AKIDGYITSYR , result: 0.809

// phosphorylation enrichment lookup, sequence = DGLALYTGSAL [COL6A3_Y524_S521L] , result: 1.09

// phosphorylation enrichment lookup, sequence = EEDPEYKKKFR [FAM161A_Y278] , result: 1.1

// phosphorylation enrichment lookup, sequence = LNPLFYSLRNK [OR5R1_Y290_I289F] , result: 0.552

// phosphorylation enrichment lookup, sequence = SMAKFYASGIA [ACADSB_Y373_E376G_YF] , result: 0.738

// phosphorylation enrichment lookup, sequence = GLIPAYHWVIM [NMNAT1_Y64_R66W] , result: 1.49

// phosphorylation enrichment lookup, sequence = EKMWSYTKSAE [GRIA3_Y705_M706T] , result: 0.658

// phosphorylation enrichment lookup, sequence = TRNVRYLTLDI [AKR1C2_Y305_N300T] , result: 0.633

// phosphorylation enrichment lookup, sequence = MSRDVYSTDCF [NTRK2_Y702_Y706C_YF] , result: 1

// phosphorylation enrichment lookup, sequence = NGEDPYAGSTD [XRCC1_Y515] , result: 1.21

// phosphorylation enrichment lookup, sequence = KKLAEYGPQGR [CLCA1_Y147] , result: 0.428

// phosphorylation enrichment lookup, sequence = SRASFYRKGGC [ALK_Y1283_Y1278S_YF] , result: 0.702

// phosphorylation enrichment lookup, sequence = NKVQFYIPDMN [NCR1_Y84_K82Q] , result: 0.801

// phosphorylation enrichment lookup, sequence = QSSALYEDHYL [ASS1_Y83_R86H] , result: 1.24

// phosphorylation enrichment lookup, sequence = WPLKWYVPECI [ZAP70_Y506_A507V] , result: 1.06

// phosphorylation enrichment lookup, sequence = PRRRFYVVACD [RNASE3_Y134_G130R] , result: 0.597

// phosphorylation enrichment lookup, sequence = YRQLPYCPSVE [CTNND2_Y508_Q507P] , result: 1.51

// phosphorylation enrichment lookup, sequence = EQFELYCEMGS [CBL_Y371_YF] , result: 1.95

// phosphorylation enrichment lookup, sequence = LWPIWYRCHRP [MRGPRX1_Y130] , result: 1.86

// phosphorylation enrichment lookup, sequence = DEIPLYLKGGV [COX7A2_Y44] , result: 0.79

// phosphorylation enrichment lookup, sequence = GHGEEYPVAGA [NOTCH3_Y2221_A2223V] , result: 0.763

// phosphorylation enrichment lookup, sequence = QDEPTYARSSK [PEAK1_Y616_H611Q] , result: 0.787

// phosphorylation enrichment lookup, sequence = VDSIEYEVASQ [SLC7A7_Y7_T5I] , result: 1.22

// phosphorylation enrichment lookup, sequence = ENGPYYASYPP [GDAP2_Y488_T489A] , result: 1.09

// phosphorylation enrichment lookup, sequence = APGNAYGDAGF [SYP_Y250_D248N_YF] , result: 0.527

// phosphorylation enrichment lookup, sequence = SSMIDYNTLEK [MYOC_Y479_P481T] , result: 0.792

// phosphorylation enrichment lookup, sequence = TEYSQYMRRKN [MAX_Y73_I71S] , result: 0.674

// phosphorylation enrichment lookup, sequence = QSHKVYFQHLL [POR_Y604_V605F] , result: 1.14

// phosphorylation enrichment lookup, sequence = TRSFKYLLLSM [NF1_Y491_YF] , result: 1.12

// phosphorylation enrichment lookup, sequence = QWPGPYDRPGA [HNRNPH2_Y210_R206W] , result: 0.646

// phosphorylation enrichment lookup, sequence = FISLIYTNFEA [GSTP1_Y109_YF] , result: 1.56

// phosphorylation enrichment lookup, sequence = EREFKYGAHNF [OAT_Y50_YF] , result: 0.516

// phosphorylation enrichment lookup, sequence = QMIETYFDFRL [NSMF_Y506] , result: 2.67

// phosphorylation enrichment lookup, sequence = AVNNFYAAKKT [CCDC178_Y422_D420N] , result: 0.708

// phosphorylation enrichment lookup, sequence = LPEVSYVKAID [GLRA1_Y307_K304E] , result: 0.207

// phosphorylation enrichment lookup, sequence = QFLMKYVRSAS [ABCD1_Y337_W339R] , result: 0.995

// phosphorylation enrichment lookup, sequence = RVGNMYVRGLS [ABCG8_Y209] , result: 0.672

// phosphorylation enrichment lookup, sequence = IFLADCRIMEG [ALOX12B_Y318_Y318C_YF] , result: 1.33

// phosphorylation enrichment lookup, sequence = DGQVNYEELVQ [CALM1_Y139_F142L] , result: 1.47

// phosphorylation enrichment lookup, sequence = PEADKYRLTFA [FGG_Y300_YF] , result: 1.05

// phosphorylation enrichment lookup, sequence = GYEEAYSVFKK [PAFAH1B1_Y28] , result: 1.35

// phosphorylation enrichment lookup, sequence = PQGVRYTFTID [DCX_Y103_I104T_YF] , result: 1.41
